Source of measurements: ChEMBL document CHEMBL1157808

molecular target: Estrogen receptor beta (Homo sapiens); experiment: Agonist activity at ERbeta expressed in HEK293 cells at 10 uM after 24 hrs by luciferase reporter gene assay relative to 3,17-beta-estradiol; assay type: functional, cell-based
observation-type: Activity (%)

Oc1ccc(CC2CC(CCCc3ccc(O)c(O)c3)=NO2)cc1 (single isomer, unassigned; 28b) | -0.7

[A] CC1(c2ccccc2)CC(CCCc2ccc(O)cc2)=NO1 (single isomer, unassigned; 46b)
[B] Oc1ccc(CCCC2=NOC(c3ccccc3)C2)cc1 (single isomer, unassigned; 45b)
Task: Activity comparison. Which is larger, A or B ? Response format: the label of the selected entry.
Output: B

[A] Oc1ccc(CC2CC(CCCc3ccccc3)=NO2)cc1 (single isomer, unassigned; 25a)
[B] CC1(c2ccccc2)CC(CCc2cccc(O)c2)=NO1 (single isomer, unassigned; 38a)
Task: Hey, which is lower on measured Activity, A or B ? Your choice should be expressed through its label.
Output: B

[P] Oc1ccc(CCCC2=NOC(Cc3ccccc3)C2)cc1O (single isomer, unassigned; 27b)
[Q] O=C(CCCc1ccc(O)cc1)CC(O)Cc1ccc(O)cc1 (stereo in doubt; form 2)
[R] O=C(CCCc1ccc(O)cc1)CC(O)c1ccccc1 (single isomer, unassigned; 50a)
[S] Oc1ccc(CC2CC(CCc3ccccc3)=NO2)cc1 (stereo not drawn)
[T] O=C(CCc1ccc(O)cc1)CC(O)Cc1ccccc1 (racemic)
Task: Ranking field: Activity; order: falling. Note for the reader: the ranking is given by listing the labels in the order requested.
Output: R, T, S, Q, P
(R: 170%, T: 107%, S: 42.4%, Q: 1.8%, P: -1.3%)

[I] CC(O)(CC(=O)CCc1ccccc1)c1ccccc1 (racemic)
[II] Oc1ccc(CCC2=NOC(Cc3ccc(F)cc3)C2)cc1 (single isomer, unassigned)
[III] Oc1cccc(CCC2=NOC(CCc3ccccc3)C2)c1 (stereo in doubt; 17a)
Task: Let's sort these by Activity, smallest first. Go ahead? Returns: the labels listed in the requested order.
Output: III, II, I

[1] Oc1ccc(CCCC2=NOC(c3ccccc3)C2)cc1 (single isomer, unassigned; 45a)
[2] O=C(CCCc1ccc(O)cc1)CC(O)Cc1ccccc1 (racemic)
[3] Oc1ccc(CCCC2=NOC(Cc3ccc(O)cc3)C2)cc1 (single isomer, unassigned)
Task: hey, can you rank those compounds up there by Activity? biggest number first please Answer format: the labels, in the requested order.
Output: 2, 1, 3
(2: 82.3%, 1: 44.7%, 3: 10.6%)

[1] O=C(CCCc1ccccc1)CC(O)c1ccccc1 (single isomer, unassigned)
[2] O=C(CCCc1ccc(O)cc1)CC(O)Cc1ccc(O)cc1 (stereo in doubt; form 1)
Task: Return label of the item with the larger Activity. Candidates: 1 , 2 . Give the chosen item's label as your response.
Output: 2

====

organism: Homo sapiens; assay: Selectivity ratio of relative binding affinity for human ERalpha to relative binding affinity for human ERbeta
observation-type: Ratio

Solved cases (3 shown):
Oc1ccc(CCCC2=NOC(c3ccccc3)C2)cc1 (single isomer, unassigned; 45a) | 157
O=C(CCc1ccc(O)cc1)CC(O)CCc1ccccc1 (racemic) | 0.3
CC(O)(CC(=O)CCCc1ccccc1)c1ccccc1 (racemic) | 2

[1] O=C(CCCc1ccccc1)CC(O)c1ccccc1 (stereo in doubt; 48a)
[2] CC(O)(CC(=O)CCCc1ccc(O)cc1)c1ccccc1 (racemic)
Task: Input pair: 1 , 2 . Output: entry with lower Ratio. Reply briefly: the label of your chosen item.
Output: 1
(1: 0.7, 2: 8)
